Experiment: pre-clinical good laboratory practices toxicology, maximum tolerated dose
Set-up: species or system rats
Details: rat, in vivo, rat MTD 3 mg/kg/day times 6; read-out: HED (human equivalent dose) of the rat maximum tolerated dose
value type: MTD

Request: Quick check: MTD of COc1cc2c(cc1F)C(c1ccccc1Cl)=Nc1c(n[nH]c1C)N2 [compound of Formula I] ?
Result: 18 mg/kg/day
